# System: Acinetobacter baumannii
# applied.conditions: A. baumannii ATCC 19606
Positions of bridges follow the written chain, without caps; N, C: chain ends. Non-standard residues stand in square brackets, D forms with d. Residues, ends and D or L forms follow the SMILES beside them. *: point of attachment. Benzoyl(3,5-Cl2) = O=C(c1cc(Cl)cc(Cl)c1)*; Benzoyl(4-Ph) = O=C(c1ccc(-c2ccccc2)cc1)*; Benzoyl(3-Cl) = O=C(c1cccc(Cl)c1)*; X4 = O=C(c1ccc(Cl)c(Cl)c1)*; Dab = NCC[C@H](N)C(=O)O; Abu = CC[C@H](N)C(=O)O; Dap = NC[C@H](N)C(=O)O; PhAc = O=C(Cc1ccccc1)*
We begin with a simple list: items and their reported MIC.
Answer with a number only, understood to be in µg/mL.

Here's what some known entries look like.
compound	observed
CC[C@@H]1NC(=O)[C@@H](CC(C)C)NC(=O)[C@H](CCN)NC(=O)[C@@H](NC(=O)[C@H](CN)NC(=O)[C@@H](NC(=O)[C@H](CCN)NC(=O)c2cccc(Cl)c2)[C@@H](C)O)CCNC(=O)[C@H]([C@@H](C)O)NC(=O)[C@H](CCN)NC(=O)[C@H](CCN)NC1=O [Compound 88] ({Benzoyl(3-Cl)}-[Dab]T[Dap][Dab][Dab][dL][Abu][Dab][Dab]T; lactam 4-C)	2
CC(C)C[C@H]1NC(=O)[C@H](CCN)NC(=O)[C@@H](NC(=O)[C@H](CN)NC(=O)[C@@H](NC(=O)[C@H](CCN)NC(=O)c2cc(Cl)cc(Cl)c2)[C@@H](C)O)CCNC(=O)[C@H]([C@@H](C)O)NC(=O)[C@H](CCN)NC(=O)[C@H](CCN)NC(=O)[C@H](C)NC1=O [Compound 117] ({Benzoyl(3,5-Cl2)}-[Dab]T[Dap][Dab][Dab][dL]A[Dab][Dab]T; lactam 4-C)	1
CC[C@@H]1NC(=O)[C@@H](CC(C)C)NC(=O)[C@H](CCN)NC(=O)[C@@H](NC(=O)[C@H](CN)NC(=O)[C@@H](NC(=O)[C@H](CCN)NC(=O)c2ccc(Cl)c(Cl)c2)[C@@H](C)O)CCNC(=O)[C@H]([C@@H](C)O)NC(=O)[C@H](CCN)NC(=O)[C@H](CCN)NC1=O [Compound 71] (X4-[Dab]T[Dap][Dab][Dab][dL][Abu][Dab][Dab]T; lactam 4-C)	0.5
CC(C)C[C@H]1NC(=O)[C@H](CCN)NC(=O)[C@@H](NC(=O)[C@H](CCN)NC(=O)[C@@H](NC(=O)[C@H](CCN)NC(=O)Cc2ccccc2)[C@@H](C)O)CCNC(=O)[C@H]([C@@H](C)O)NC(=O)[C@H](CCN)NC(=O)[C@H](CCN)NC(=O)[C@H]([C@@H](C)O)NC1=O [Compound 30] (PhAc-[Dab]T[Dab][Dab][Dab][dL]T[Dab][Dab]T; lactam 4-C)	32

Problem: Given the compound CC(C)C[C@H]1NC(=O)[C@H](CCN)NC(=O)[C@@H](NC(=O)[C@H](CCN)NC(=O)[C@@H](NC(=O)[C@H](CCN)NC(=O)c2ccc(-c3ccccc3)cc2)[C@@H](C)O)CCNC(=O)[C@H]([C@@H](C)O)NC(=O)[C@H](CCN)NC(=O)[C@H](CCN)NC(=O)[C@H]([C@@H](C)O)NC1=O [Compound 29] ({Benzoyl(4-Ph)}-[Dab]T[Dab][Dab][Dab][dL]T[Dab][Dab]T; lactam 4-C) , what is its reported MIC?
Result: 8
